test system: VCaP (AR-V7 positive) cells; assay: Cell growth inhibition in VCaP cells (Cell Titer-Glo, 96 hours); format: cell-based; conditions: Homo sapiens, VCaP, compound (I-1) alone
OBSERVED_PROPERTY: EC50 (nM)
Numeric answer only, unit nM assumed.

The measured EC50 that Cc1noc(C)c1-c1cc(C(O)(c2ccccn2)c2ccccn2)c2nc(C3CC3)[nH]c2c1 [compound (I-1)] showed for VCaP (AR-V7 positive) cells is 130
